# method.summary: Inhibition of interleukin-23 binding to rat interleukin-23 receptor incubated for 2 hrs by competitive binding ELISA
pIC50: −log10 of the molar value. Where a SMILES comes first, the peptide text is derived from it.
Readings of pIC50 for the listed compounds

Consider the reported pIC50 for these compounds:
1) CC(=O)NCCCC[C@H](NC(=O)[C@](C)(CCCCN)NC(=O)[C@H](Cc1ccc2ccccc2c1)NC(=O)[C@H](Cc1ccc(OCCN)cc1)NC(=O)[C@@H]1CSCC[C@H](NC(=O)CCC(=O)O)C(=O)N[C@@H](CCC(N)=O)C(=O)N[C@@H]([C@@H](C)O)C(=O)N[C@@H](Cc2c[nH]c3ccccc23)C(=O)N[C@@H](CCC(N)=O)C(=O)N1)C(=O)N[C@@H](CC(N)=O)C(=O)NCC(N)=O; > 8.00
2) CC(=O)N[C@@H](CS)C(=O)N[C@@H](CO)C(=O)N[C@H](C(=O)N[C@@H](Cc1c[nH]c2ccccc12)C(=O)N[C@@H](CCC(N)=O)C(=O)N[C@@H](CS)C(=O)N[C@@H](Cc1ccc(O)cc1)C(=O)N[C@@H](Cc1c[nH]c2ccccc12)C(=O)N[C@@H](CO)C(=O)N[C@@H](CCCCN)C(=O)N[C@@H](CCC(N)=O)C(=O)N[C@@H](CO)C(=O)NCC(=O)NCC(=O)N[C@@H](CO)C(N)=O)[C@@H](C)O (Ac-CSTWQCYWSKQSGGS-NH2); 6.69
3) COc1ccc(C[C@H](NC(=O)[C@@H](NC(=O)[C@H](CCC(N)=O)NC(=O)[C@H](Cc2c[nH]c3ccccc23)NC(=O)[C@@H](NC(=O)[C@H](CCC(N)=O)NC(=O)[C@@H](NC(=O)CCC(=O)O)C(C)(C)S)[C@@H](C)O)C(C)(C)S)C(=O)N[C@@H](Cc2ccc3ccccc3c2)C(=O)N[C@@](C)(CCCCN)C(=O)N[C@@H](CCCCNC(C)=O)C(=O)N[C@@H](CC(N)=O)C(=O)NCC(N)=O)cc1; 7.00 to 7.60
4) CC(=O)N[C@H]1CCSC[C@@H](C(=O)N[C@@H](Cc2ccc(OCCN)cc2)C(=O)N[C@@H](Cc2ccc3ccccc3c2)C(=O)N[C@@](C)(CCCCN)C(=O)N[C@@H](CCCCNC(=O)CC(C)C)C(=O)N[C@@H](CC(N)=O)C(=O)NCC(N)=O)NC(=O)[C@H](CCC(N)=O)NC(=O)[C@H](Cc2c[nH]c3ccccc23)NC(=O)[C@H]([C@@H](C)O)NC(=O)[C@H](CCC(N)=O)NC1=O; 7.60 to 8.00

// next item, pIC50 requested
State the recorded pIC50 for this entry: "COc1ccc(C[C@H](NC(=O)[C@@H]2CSCC[C@H](NC(C)=O)C(=O)N[C@@H](CCC(N)=O)C(=O)N[C@@H]([C@@H](C)O)C(=O)N[C@@H](Cc3c[nH]c4ccccc34)C(=O)N[C@@H](CCC(N)=O)C(=O)N2)C(=O)N[C@@H](Cc2ccc3ccccc3c2)C(=O)NC(C)(C)C(=O)N[C@@H](CCCCNC(C)=O)C(=O)N[C@@H](CC(N)=O)C(=O)NCC(N)=O)cc1" 7.00 to 7.60

Ref: ChEMBL document CHEMBL4417631
